The measured values listed here are drawn from patent US8232273B2.

- System name: Bcl-xL (GST-Bcl-xL) (Homo sapiens)
- Assay details: TR-FRET binding assay, competition with F-Bak for the Bcl-xL binding site
- Assay context: values listed in the order of Table 1, read-out: TR-FRET assay results (Ki), Bcl-xL
Assay metric: Ki (nM)
The reply should be a number in nM, with the unit left off.

Reference set (5 entries):
Q. Which Ki value is on record for CN(C)CC#Cc1ccc(OCCCc2sc(N3CCc4cccc(C(=O)Nc5nc6ccccc6s5)c4C3)nc2C(=O)O)cc1 [Example 74] ?
A. 0.05

Q. # get_value(readout='Ki', item= CN(C)CCCNc1ncnc2c1cnn2-c1ccc(OCCCc2sc(N3CCc4cccc(C(=O)Nc5nc6ccccc6s5)c4C3)nc2C(=O)O)cc1 [Example 54] )
A. 0.05

Q. Which Ki reading was recorded for the compound CN1CCN(c2cccc(OCCCc3ccc(N4CCc5cccc(C(=O)Nc6nc7ccccc7s6)c5C4)nc3C(=O)O)c2)CC1 [Example 105] ?
A. 0.3

Q. Name the reported Ki value associated with the compound CN1CCN(C(=O)c2ccc(OCCCc3ccc(N4CCc5cccc(C(=O)Nc6nc7ccccc7s6)c5C4)nc3C(=O)O)cc2)CC1 [Example 98]
A. 10

Q. State the recorded Ki for this entry: CCCN(CCc1ccc(OCCCc2sc(N3CCc4cccc(C(=O)Nc5nc6ccccc6s5)c4C3)nc2C(=O)O)cc1)CC1CCCc2c1ccc(OC)c2OC (stereo not drawn) [Example 28]
A. 1

API: the following record is the query input.
Q. I am curious: what Ki value has been reported for CN(C)CCOc1ccc(-c2ccc(OCCCc3sc(N4CCc5cccc(C(=O)Nc6nc7ccccc7s6)c5C4)nc3C(=O)O)cc2)nc1 [Example 90] ?
A. 0.05

====

- System name: Bcl-xL (GST-Bcl-xL) (Homo sapiens, UniProt Q07817)
- Sequence (Q07817 whole entry, species assumed): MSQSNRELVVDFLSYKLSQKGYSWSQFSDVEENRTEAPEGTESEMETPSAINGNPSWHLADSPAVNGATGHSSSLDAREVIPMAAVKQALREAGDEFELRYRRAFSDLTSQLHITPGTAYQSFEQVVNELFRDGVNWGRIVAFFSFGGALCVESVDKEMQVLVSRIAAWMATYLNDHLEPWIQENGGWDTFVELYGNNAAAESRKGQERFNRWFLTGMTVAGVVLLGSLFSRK
- Assay details: TR-FRET binding assay, competition with F-Bak for the Bcl-xL binding site
- Assay context: values listed in the order of Table 1, read-out: TR-FRET assay results (Ki), Bcl-xL
pKi: −log10 of the molar value.
# if value of pKi reaches 10, tag 1 (yes); if it stays below, tag 0 (no)

Look over these answered cases.
Q. Given Cc1ccccc1-c1ccc(N2CCc3cccc(C(=O)Nc4nc5ccccc5s4)c3C2)nc1C(=O)O , state whether its pKi is at least 10.
A. 0 (no)

Q. Determine whether this compound has pKi no lower than 10: N#Cc1c(-c2ccc(O)cc2)n[nH]c1NCCCc1sc(N2CCc3cccc(C(=O)Nc4nc5ccccc5s4)c3C2)nc1C(=O)O
A. 0 (no)

Q. Would you say N[C@H]1[C@@H]2CCC[C@H]1[C@@H](c1ccc(OCCCc3sc(N4CCc5cccc(C(=O)Nc6nc7ccccc7s6)c5C4)nc3C(=O)O)cc1)CC2 shows pKi at minimum 10?
A. 0 (no)

Q. Confirm if pKi reported for the compound O=C(Nc1nc2ccccc2s1)c1cccc2c1CN(c1nc(C(=O)O)c(CCCOc3ccc(-n4ncc5cncnc54)cc3)s1)CC2 is 10 or above.
A. 1 (yes)

Q. Could you please find out whether CN(C)CCOc1cccc(OCCCc2ccc(N3CCc4cccc(C(=O)Nc5nc6ccccc6s5)c4C3)nc2C(=O)O)c1 has pKi that meets 10 or exceeds it?
A. 0 (no)

***
Q. Reported pKi at or above 10? N#Cc1cccnc1-c1ccc(OCCCc2sc(N3CCc4cccc(C(=O)Nc5nc6ccccc6s5)c4C3)nc2C(=O)O)cc1
A. 1 (yes)

Q. Exam item: decide whether the reported pKi for N#CC1Cc2cc(OCCCc3sc(N4CCc5cccc(C(=O)Nc6nc7ccccc7s6)c5C4)nc3C(=O)O)ccc21 (centres unmarked) is at least 10.
A. 0 (no)

Q. Determine whether measured pKi meets or exceeds 10 for O=C(Nc1nc2ccccc2s1)c1cccc2c1CN(c1nc(C(=O)O)c(CCCOc3ccc4c5c3CCCN5CCC4)s1)CC2
A. 0 (no)
